Assay: NCI Yeast Anticancer Drug Screen. Data for the bub3 strain (AID 167)
Details: S. cerevisiae bub3 mutant strain, at 33.0 µM
The panel holds about 79,000 compounds, 15% with a hit somewhere; the sample as a whole holds those more often. The source made the active and inactive calls. No stated cut-off is given here; in the data, active means growth inhibition above about 70%; inactive means the rest.
Possible outcomes: active, inactive

# molecule, classification
data = [
    ("O=c1c2ccccc2nc(-c2ccc(Cl)cc2)n1O", "active"),
    ("CC(CN(C)C)C(=O)/C=C/c1ccc(Cl)c(Cl)c1 (configuration not stated)", "inactive"),
    ("O=C(/C=C/c1ccsc1)c1cccs1", "inactive"),
    ("CCC(=O)Nc1ccc(N=NN(C)C)cc1", "inactive"),
    ("CC(C)[Si]1(C(C)C)OCC2OC(n3cnc4c(N)ncnc43)C(N)C2O[Si](C(C)C)(C(C)C)O1 (configuration not stated)", "active"),
    ("CNC(=O)OCc1c(COC(=O)NC)c(C)n(-c2ccc(Br)cc2)c1C", "inactive"),
    ("NC(CCCCCCCCCCCCC(N)C(=O)c1ccccc1)C(=O)c1ccccc1 (configuration not stated)", "active"),
    ("Fc1cc(F)c(F)c(S)c1F", "active"),
    ("CCCCCCCCCCCNC=O", "inactive"),
    ("CCCCN(CCC#N)c1ccc(/C=C/c2ccnc3ccccc23)cc1", "inactive"),
    ("COc1cc(OC)c(CSCC(NC(=O)OCC2c3ccccc3-c3ccccc32)C(=O)O)c(OC)c1 (configuration not stated)", "active"),
    ("CCCCCCCCNCCCCCCCC", "active"),
]

###

Catalogue of compounds with associated growth inhibition
Assay: NCI Yeast Anticancer Drug Screen. Data for the wt1 strain (AID 149);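 further: 0% = growth of vehicle-treated wt1 cultures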
Details: S. cerevisiae wt1 strain (SPY 50644) growth inhibition; at 11.0 µM; active compounds read high
The panel holds about 79,000 compounds, 15% with a hit somewhere; the sample as a whole holds those more often.

# compound, unit.label, growth inhibition
measured = [
    ("CCCCCCC=C(C(=O)OCC)C(=O)OCC", "%", -6),
    ("COC(=O)C(=O)CC(=O)c1cccc(OC)c1", "%", 24),
    ("O=C(CCSC1=NCCCN1)c1ccc(F)cc1", "%", -101),
    ("Cn1c(-c2ccc(/C=N\\N3CCN(/N=C/c4ccc(-c5c[n+]6ccsc6n5C)cc4)CC3)cc2)c[n+]2ccsc12", "%", 14),
    ("O=NC1c2cccc3cccc(c23)C1N=O (stereo unspecified)", "%", 20),
    ("COc1cc2c(cc1O)[C@H](C)C(c1ccccc1OC)O2 (stereo partly specified)", "%", -13),
    ("CCCCCCCCCCCCCCCCCCNC(=S)/N=C/c1c(O)c2ccccc2[nH]c1=O", "%", -3),
    ("N#C/C(=C\\NC(=S)Nc1ccc(S(N)(=O)=O)cc1)C(=O)c1ccc2ccccc2c1", "%", 1),
    ("CCC[CH2][Ge]([CH2]CCC)([CH2]CCC)[O]C(=O)C(O)c1ccccc1 (stereo unspecified)", "%", 11),
    ("CCOC(=O)/C(=C\\c1ccc(F)cc1)C(C)=O", "%", 48),
    ("CCCCCCCN(CCCCCCC)CC(=O)c1ccc2cc(Cl)c3ccccc3c2c1", "%", 97),
]

###

Test: NCI Yeast Anticancer Drug Screen. Data for the wt1 strain (AID 149);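 further: 0% = growth of vehicle-treated wt1 cultures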
Conditions: S. cerevisiae wt1 strain (SPY 50644) growth inhibition; at 1.2 µM; active compounds read high
This is part of a sample that, as a whole, favours compounds with a hit. Of some 79,000 tested, about 15% had one in any assay.
Catalogue of compounds with associated growth inhibition

# compound, unit.label, growth inhibition
measured = [
    ("COc1ccc2cc3c4cc5c(cc4cc[n+]3cc2c1OC)OCO5", "%", 8),
    ("CC(=O)CCC1=C(C)C(=O)C(=O)C(C)=C1O", "%", -4),
    ("CCC[CH2][Ge]([CH2]CCC)([CH2]CCC)[O]C(=O)C(O)c1ccccc1 (stereo not given)", "%", -4),
    ("O=C1C(/C=C/c2ccc(Cl)cc2)=NNC2N1N=C1NC(=O)C3(NN12)c1ccccc1-c1ccccc13 (stereo not given)", "%", 1),
    ("O=C1C=C(Br)C(=O)c2ccccc21", "%", 10),
    ("CN(CCOc1ccc(Cl)cc1)CCOc1ccc(Cl)cc1", "%", 7),
    ("CN(C)CC(CN(C)C)C(=O)/C=C/c1ccc(Cl)cc1Cl", "%", -1),
    ("CN1CCN(C(=O)c2cccc3cccc(C(=O)O)c23)CC1", "%", 6),
    ("Oc1c2c(c(O)c3ccccc13)C1(N=N2)c2ccccc2Oc2ccccc21", "%", 2),
    ("O=C(Cc1ccccc1)NNc1nc(NNC(=O)c2ccncc2)nc(Nc2ccc([N+](=O)[O-])cc2)n1", "%", -81),
    ("Cc1c2cc[n+](CCO)cc2c(C)c2c1[nH]c1ccc(O)cc12", "%", 8),
    ("CC(C)S(=O)(=O)/C=C\\S(=O)(=O)C(C)C", "%", 1),
    ("COc1ccccc1NC(=O)c1ccc(Cl)cc1", "%", -1),
    ("CC(=O)Oc1ccc2c(c1)Cc1cc(N3C(=O)C=CC3=O)ccc1-2", "%", 1),
    ("S=C1C(=Nc2ccccc2)N(c2ccccc2)/C(=N\\c2ccccn2)N1c1ccccc1", "%", -4),
    ("CCCCCCCCCCCNC=O", "%", -18),
    ("O=C1CSC(c2ccccc2)N1c1ccc(-c2ccc(-n3c(-c4ccccc4)nc4ccccc4c3=O)cc2)cc1 (stereo not given)", "%", -2),
    ("CC1CCC(C2=CSC3CCCCC3N2)CC1 (stereo not given)", "%", 14),
    ("CCCCCc1c(CCCC)c(=O)[nH]c2cc(CNCC(OC)OC)ccc12", "%", 1),
    ("CN(C)CC1=Nc2cccc3cccc(c23)N1", "%", 2),
    ("NC(N)=NC(N)=Nc1ccccc1 (tested in a mixture with another compound)", "%", -1),
    ("COc1ccc(C2CC(C)(N3CCCC3)Oc3cc4c(cc32)OCO4)cc1 (stereo not given)", "%", -3),
    ("CC(C)=CCC/C(C)=C/CN1C(=O)C=CC1=O", "%", 2),
    ("Nc1ccc(S(=O)(=O)Nc2nc3c(c(=O)[nH]2)CCCC3)cc1", "%", 5),
    ("CC1(C)OC(=O)C(=Cc2ccc([N+](=O)[O-])s2)C(=O)O1", "%", -28),
    ("Cc1cccc(C)c1NC(=O)CCC(=O)C(C)C(=O)c1ccc(O)cc1 (stereo not given)", "%", -1),
    ("O=C1c2cccc3cccc(c23)C(=O)N1CCNCCN1C(=O)c2cccc3cccc(c23)C1=O", "%", 0),
    ("Nc1cccc(-c2cc[cH-]c2)c1.[Fe+2].c1cc[cH-]c1", "%", -1),
    ("CCCCCCNCCCNc1c2ccccc2nc2cccc([N+](=O)[O-])c12", "%", -2),
    ("CCOC(=O)Nc1ccc(C)c(NC(=O)OCC)c1", "%", 6),
    ("CCN(CC)CCNc1ccc2nc(C)n3c4ccc(O)cc4c(=O)c1c23", "%", -2),
    ("O=c1[nH]c2c([N+](=O)[O-])cccc2c2ccccc12", "%", -3),
    ("COC(=O)C1=C(C(=O)OC)CC(n2nnc(C(=O)OC)c2C(=O)OC)=CC1", "%", 0),
    ("CCC(C)COC(=O)Nc1cccc(Cl)c1 (stereo not given)", "%", 1),
    ("O=S(=O)(c1cccc(C(F)(F)F)c1)N1c2ccccc2-n2cccc2C1c1cccnc1 (stereo not given)", "%", -22),
    ("O=C1c2ccccc2-c2cc3ccccc3c(=O)n21", "%", -21),
    ("O=C(CCSC1=NCCCN1)c1ccc(F)cc1", "%", -43),
    ("CNC(=O)OCc1c(COC(=O)NC)c(C)n(-c2ccc(Br)cc2)c1C", "%", -41),
    ("O=[N+]([O-])c1ccc(C(c2c[nH]c3ccccc23)c2c[nH]c3ccccc23)cc1", "%", 12),
    ("CCCCCCCCSC1=C(Cl)C(=O)C(OC)=C(OC)C1=O", "%", -55),
    ("c1ccc(-c2cc(C3CO3)c3ccccc3n2)cc1 (stereo not given)", "%", -1),
    ("O=CC1(F)CC1(c1ccccc1)c1ccccc1 (stereo not given)", "%", -1),
    ("COc1cc(C2C3=C(COC3=O)Oc3cc4c(cc32)OCO4)cc(OC)c1O (stereo not given)", "%", 1),
    ("CCCNC(=O)OCc1c(COC(=O)NCCC)c(-c2ccc(Cl)c(Cl)c2)n2c1CCC2", "%", -25),
    ("CCCCCCCCCCCCCCCCCCNC(=S)/N=C/c1c(O)c2ccccc2[nH]c1=O", "%", -32),
]
